# System: NCI-H23
# experimentSummary: NCI tumour cell line growth inhibition, 48 h
The source made the active and inactive calls. Cut-off read from the data, not from the text of the source: active = GI50 up to about 1.1 µM and inactive = higher.
Outcomes: TRUE (active), FALSE (inactive)

1) CC1(C)Oc2ccc(Cl)cc2C12CC2	FALSE
2) COc1cc(C2C3=C(COC3=O)Oc3cc4c(cc32)OCO4)ccc1OC(C)=O (stereo unspecified)	TRUE
3) O=C1Nc2ccccc2/C1=N/Nc1nc(-c2ccc(Cl)c(Cl)c2)cs1	FALSE
4) Cc1cccc2c1CC1(C2)Cc2c(C)cccc2C1=O (stereo unspecified)	FALSE
5) CC(C)C1=CC(=O)C(C)(C2C(O)CC3(C)C4CC=C5C(CCC(OC6OC(CO)C(O)C(O)C6OC6OC(C)C(O)C(O)C6O)C5(C)C)C4(C)C(=O)CC23C)O1 (stereo unspecified)	FALSE
6) CCCCn1cc(C(=O)O)c(=O)c2c3sccc3ccc21	FALSE
7) COC(=O)[C@]12CSC[C@H]1C[C@H](c1ccc(N(C)C)cc1)N2	FALSE
8) COc1ccc(-n2c(=O)c3nc(S)[nH]c3n(-c3ccc(OC)cc3)c2=S)cc1	FALSE
9) COc1cc2oc(=O)ccc2cc1CC=C(C)C	FALSE
10) CC1CC(=O)CC[C@@H]1OCc1ccccc1 (stereo partly specified)	FALSE
11) CCOC(=O)c1c(NC(=S)NCc2ccccc2)sc2c1CCN(C)C2	FALSE
